B1: CSTF3 (parent)
chain: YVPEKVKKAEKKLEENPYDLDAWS

- Variants of: B1
- assay.notes: protein stability index of a GFP-peptide fusion (GPS, HEK-293T) (PSI 1-6); higher = more stable;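 note: lentivirally expressed fusions sorted by FACS into six bins by GFP to DsRed ratio, PSI derived from sequencing read proportions per bin multiplied by bin number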
- details: c terminus: a fixed tail appended
observation.type: protein stability index
Answer using only a numeral; do not append any unit.

// query // protein stability index lookup, key: K5C
// result 2.71

// query // protein stability index lookup, key: Y1R
// result 5.17

// query // protein stability index lookup, key: K12Y
// result 2.72

// query // protein stability index lookup, key: D21N
// result 4.07

// query // protein stability index lookup, key: E14Y
// result 2.2

// query // protein stability index lookup, key: K12T
// result 3.28

// query // protein stability index lookup, key: N16M
// result 1.81
